Target or system organic anion transporting polypeptide 1B1 (OATP1B1) (Homo sapiens, UniProt Q9Y6L6); recorded quantity OATP1B fold Debio 025.
Square brackets hold non-standard residues; d marks the D form. Peptide text beside a SMILES is read from it. MeBmt = C/C=C/C[C@@H](C)[C@@H](O)[C@H](NC)C(=O)O; NEtVal = CCN[C@H](C(=O)O)C(C)C; NMeL = CN[C@@H](CC(C)C)C(=O)O; NMeV = CN[C@H](C(=O)O)C(C)C; dHiv = CC(C)[C@@H](O)C(=O)O; NMeA = CN[C@@H](C)C(=O)O; dNMeA = CN[C@H](C)C(=O)O; Abu = CC[C@H](N)C(=O)O
Simply state the number, no unit and no words.

Some molecules with known OATP1B fold Debio 025 results, for comparison:
# Molecule, OATP1B fold Debio 025
records = [
    ("C/C=C/C[C@@H](C)[C@@H](O)[C@H]1C(=O)N[C@@H](CC)C(=O)N(C)[C@H](C)C(=O)N(C)[C@@H](C(C)C)C(=O)N[C@@H](C(C)C)C(=O)N(C)[C@@H](C)C(=O)N[C@@H](C)C(=O)O[C@H](C(C)C)C(=O)N(C)[C@@H](CC(C)C)C(=O)N[C@@H](CC(C)C)C(=O)N(C)[C@@H](C(C)C)C(=O)N1C [(Ie)] (cyclo(A[dHiv][NMeL]L[NMeV][MeBmt][Abu][dNMeA][NMeV]V[NMeA]))", 0.72),
    ("C/C=C/C[C@@H](C)[C@@H](O)[C@H]1C(=O)N[C@@H](C(C)C)C(=O)N(C)[C@H](C)C(=O)N(CC)[C@@H](C(C)C)C(=O)N[C@@H](CC(C)C)C(=O)N(C)[C@@H](CC(C)C)C(=O)N[C@@H](C)C(=O)O[C@H](C(C)C)C(=O)N(C)[C@@H](CC(C)C)C(=O)N[C@@H](CC(C)C)C(=O)N(C)[C@@H](C(C)C)C(=O)N1C [(Ih)] (cyclo(A[dHiv][NMeL]L[NMeV][MeBmt]V[dNMeA][NEtVal]L[NMeL]))", 0.04),
]

Next item in the queue.
Bench note, organic anion transporting polypeptide 1B1 (OATP1B1) (Homo sapiens, UniProt Q9Y6L6): C/C=C/C[C@@H](C)[C@@H](O)[C@H]1C(=O)N[C@@H](CC)C(=O)N(C)[C@H](C)C(=O)N(C)[C@@H](C(C)C)C(=O)N[C@@H](CC(C)C)C(=O)N(C)[C@@H](CC(C)C)C(=O)N[C@@H](C)C(=O)O[C@H](C(C)C)C(=O)N(C)[C@@H](CC(C)C)C(=O)N[C@@H](CC(C)C)C(=O)N(C)[C@@H](C(C)C)C(=O)N1C [(Id)] (cyclo(A[dHiv][NMeL]L[NMeV][MeBmt][Abu][dNMeA][NMeV]L[NMeL])) , OATP1B fold Debio 025 reads 0.05

The reported measurements were obtained from patent US8501683B2.
